Target: Mcl-1 protein (UniProtKB primary accession number: Q07820) (Homo sapiens, UniProt Q07820)
Sequence (Q07820 whole entry): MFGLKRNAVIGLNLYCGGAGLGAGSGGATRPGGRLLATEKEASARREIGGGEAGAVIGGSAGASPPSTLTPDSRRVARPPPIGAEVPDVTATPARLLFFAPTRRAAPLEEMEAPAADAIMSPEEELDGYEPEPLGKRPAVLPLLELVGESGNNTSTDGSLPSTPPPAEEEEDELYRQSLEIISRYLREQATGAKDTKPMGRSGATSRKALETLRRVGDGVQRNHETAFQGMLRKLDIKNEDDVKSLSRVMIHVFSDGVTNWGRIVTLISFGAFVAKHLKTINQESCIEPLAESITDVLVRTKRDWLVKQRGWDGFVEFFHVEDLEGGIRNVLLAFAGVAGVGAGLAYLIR
Test: Inhibition of Mcl-1 by fluorescence polarisation, Method 1
Type: binding
Settings: fluorescence polarisation test; Method 2 values are underlined in the patent (underlining not visible here); read-out: IC50 (M) Mcl-1 FP
Measured IC50 values are reported for all entries that follow.
Respond numerically; units are M and should not be typed.

Cc1c(-c2c(-c3ccc(F)o3)sc3ncnc(OC(Cc4ccccc4OCc4ccnc(-c5ccncc5)n4)C(=O)O)c23)ccc(OCCN2CCN(C)CC2)c1Cl (stereo not drawn) [Example 172] :: 3e-09
COc1ccccc1CC(Oc1ncnc2sc(-c3ccco3)c(-c3ccc(OCC4CN(C)CCO4)c(Cl)c3C)c12)C(=O)O (stereo not drawn) [Example 314] :: 6.9e-09
Cc1c(-c2c(-c3ccc(F)cc3)sc3ncnc(OC(Cc4ccccc4OCc4ccnn4C4CCOCC4)C(=O)O)c23)ccc(OCCN2CCN(C)CC2)c1Cl (stereo not drawn) [Example 75] :: 4e-09
CCCCn1nccc1COc1ccccc1CC(Oc1ncnc2sc(-c3ccc(F)o3)c(-c3ccc(OCCN4CCN(C)CC4)c(Cl)c3C)c12)C(=O)O (stereo not drawn) [Example 188] :: 6.4e-09
Cc1c(-c2c(-c3ccc(F)cc3)sc3ncnc(OC(Cc4ccccc4OCc4ccnc(OCCC(F)(F)F)n4)C(=O)O)c23)ccc(OCCN2CCN(C)CC2)c1Cl (stereo not drawn) [Example 62] :: 3.9e-09

Could you now look at the following molecule, please?
Lab note: Mcl-1 protein (UniProtKB primary accession number: Q07820) (Homo sapiens, UniProt Q07820) assay, enter IC50 for Cc1c(-c2c(-c3ccc(Cl)o3)sc3ncnc(OC(Cc4ccccc4OCC4CCCO4)C(=O)O)c23)ccc(OCCN2CCN(C)CC2)c1Cl (stereo not drawn) [Example 377] here
3.8e-09

* * *

Target: Mcl-1 protein (UniProtKB primary accession number: Q07820) (Homo sapiens, UniProt Q07820)
Test: Inhibition of Mcl-1 by fluorescence polarisation, Method 1
Type: binding
Conditions: fluorescence polarisation; Method 1, or Method 2; read-out: IC50 (M) Mcl-1 FP
Measurement type: IC50
Enter the number, and then the unit.

Solved entries:
CCCCn1nccc1COc1ccccc1CC(Oc1ncnc2sc(-c3ccc(F)nc3)c(-c3ccc(OCCN4CCN(C)CC4)c(Cl)c3C)c12)C(=O)O (stereo not shown) [Example 607] :: 3.5e-09 M
CCCCn1nccc1COc1ccccc1CC(Oc1ncnc2sc(-c3ccc(OCCN4CCOCC4)nc3)c(-c3ccc(OCCN4CCN(C)CC4)c(Cl)c3C)c12)C(=O)O (stereo not shown) [Example 621] :: 5.3e-09 M
COc1ccccc1CC(Oc1ncnc2sc(C3CCCO3)c(-c3ccc(OCCN4CCN(C)CC4)c(Cl)c3C)c12)C(=O)O (single isomer, unassigned) [Example 590] :: 8.4e-08 M
COCCOc1cccc(-c2sc3ncnc(OC(Cc4ccccc4OC)C(=O)O)c3c2-c2ccc(OCCN3CCN(C)CC3)c(Cl)c2C)c1 (stereo not shown) [Example 589] :: 8.7e-09 M
CCc1sc2ncnc(OC(Cc3ccccc3)C(=O)O)c2c1-c1cc2nc(C)oc2c(Cl)c1C (stereo not shown) [Example 444] :: 1.2e-08 M
COc1ccccc1CC(Oc1ncnc2sc(-c3ccc(C)o3)c(-c3ccc(OCCN4CCN(C)CC4)c(Cl)c3C)c12)C(=O)O (stereo not shown) [Example 541] :: 2.9e-08 M

Report measured IC50 on Mcl-1 protein (UniProtKB primary accession number: Q07820) (Homo sapiens, UniProt Q07820); entry: Cc1c(-c2c(-c3cc4ccccc4o3)sc3ncnc(OC(Cc4ccccc4)C(=O)O)c23)ccc(OCCN2CCN(C)CC2)c1Cl (stereo not shown) [Example 496]
2e-07 M

Report value: IC50, system: Mcl-1 protein (UniProtKB primary accession number: Q07820) (Homo sapiens, UniProt Q07820), compound: COc1ccccc1CC(Oc1ncnc2sc(C3CCCO3)c(-c3ccc(OCCN4CCN(C)CC4)c(Cl)c3C)c12)C(=O)O (single isomer, unassigned) [Example 591]
6.5e-08 M

# return IC50 of COCC#Cc1ccccc1CC(Oc1ncnc2sc(-c3ccc(F)cc3)c(-c3ccc(OCCN4CCN(C)CC4)c(Cl)c3C)c12)C(=O)O (stereo not shown) [Example 656] (system: Mcl-1 protein (UniProtKB primary accession number: Q07820) (Homo sapiens, UniProt Q07820))
6.1e-08 M

Name the value of IC50 reported for COc1cc(F)ccc1CC(Oc1ncnc2sc(-c3ccc(Cl)o3)c(-c3ccc(OCCN4CCN(C)CC4)c(Cl)c3C)c12)C(=O)O (stereo not shown) [Example 718] when tested on Mcl-1 protein (UniProtKB primary accession number: Q07820) (Homo sapiens, UniProt Q07820).
1.2e-08 M

Tell me its IC50 on Mcl-1 protein (UniProtKB primary accession number: Q07820) (Homo sapiens, UniProt Q07820): CC#Cc1sc2ncnc(OC(Cc3ccccc3OCc3ccnn3CCCC)C(=O)O)c2c1-c1ccc(OCCN2CCN(C)CC2)c(Cl)c1C (stereo not shown) [Example 490]
3e-09 M

Please respond with reported IC50 (system Mcl-1 protein (UniProtKB primary accession number: Q07820) (Homo sapiens, UniProt Q07820)) for Cc1c(-c2c(-c3ccc(F)cc3)sc3ncnc(OC(Cc4ccccc4OCc4ccnc(-c5ccccc5F)n4)C(=O)O)c23)ccc(OCCN(C)C)c1Cl (stereo not shown) [Example 757] .
3.95e-09 M

Provide IC50, recorded with Mcl-1 protein (UniProtKB primary accession number: Q07820) (Homo sapiens, UniProt Q07820), of COc1ccccc1CC(Oc1ncnc2sc(-c3cccc(N(C)C)c3)c(-c3ccc(OCCN4CCN(C)CC4)c(Cl)c3C)c12)C(=O)O (stereo not shown) [Example 552]
4.1e-08 M

* * *

Listed next: entries and their corresponding IC50.
Target: Mcl-1 protein (UniProtKB primary accession number: Q07820) (Homo sapiens, UniProt Q07820)
Assay: Inhibition of Mcl-1 by fluorescence polarisation, Method 1
Format: binding
Settings: fluorescence polarisation; Method 1, or Method 2; read-out: IC50 (M) Mcl-1 FP
The reply should contain only the number, in M.

In the examples that follow, each entry is paired with its recorded IC50.
Cc1c(-c2c(-c3cnn(C)c3)sc3ncnc(OC(Cc4ccccc4)C(=O)O)c23)ccc(OCCN2CCN(C)CC2)c1Cl (stereo not drawn) :: 3.7e-07
COC(=N)c1ccc(-c2sc3ncnc(OC(Cc4ccccc4OC)C(=O)O)c3c2-c2ccc(OCCN3CCN(C)CC3)c(Cl)c2C)o1 (stereo not drawn) :: 3.7e-08
CCc1sc2ncnc(OC(Cc3ccccc3)C(=O)O)c2c1-c1ccc(OCCc2cccnc2)c(Cl)c1C (stereo not drawn) :: 9.9e-08
COc1ccccc1CC(Oc1ncnc2sc(-c3ccc(-c4ccccc4)o3)c(-c3ccc(OCCN4CCN(C)CC4)c(Cl)c3C)c12)C(=O)O (stereo not drawn) :: 1.4e-06
COCCOc1ccccc1-c1nccc(COc2ccccc2CC(Oc2ncnc3sc(-c4ccc(F)cc4)c(-c4ccc(OCCN5CCN(C)CC5)c(Cl)c4C)c23)C(=O)O)n1 (stereo not drawn) :: 9.48e-10

Read off the recorded IC50 for CC#Cc1sc2ncnc(O[C@H](Cc3ccccc3OCc3ccnc(-c4ccccc4OC)n3)C(=O)O)c2c1-c1ccc(OCCN2CCN(C)CC2)c(Cl)c1C
7.4e-09

* * *

Target: Mcl-1 protein (UniProtKB primary accession number: Q07820) (Homo sapiens, UniProt Q07820)
Test: Inhibition of Mcl-1 by fluorescence polarisation, Method 1
Type: binding
Conditions: fluorescence polarisation; Method 1, or Method 2; read-out: IC50 (M) Mcl-1 FP
Measurement type: IC50

CCc1sc2ncnc(OC(Cc3ccccc3)C(=O)O)c2c1-c1ccc(O)cc1C (stereo not shown) [Example 448] :: 4.4e-07 M
COc1ccccc1CC(Oc1ncnc2sc(-c3ccc(C(N)=O)o3)c(-c3ccc(OCCN4CCN(C)CC4)c(Cl)c3C)c12)C(=O)O (stereo not shown) [Example 581] :: 4.2e-07 M
COc1ccccc1CC(Oc1ncnc2sc(-c3cnco3)c(-c3ccc(OCCN4CCN(C)CC4)c(Cl)c3C)c12)C(=O)O (stereo not shown) [Example 569] :: 3.9e-08 M

Consider now this further compound.
Indicate its recorded IC50; the compound in question is Cc1c(-c2c(-c3ccccc3)sc3ncnc(OC(Cc4ccccc4)C(=O)O)c23)ccc(OCCN2CCN(C)CC2)c1Cl (stereo not shown) [Example 502]
1.9e-08 M

* * *

Molecular target: Mcl-1 protein (UniProtKB primary accession number: Q07820) (Homo sapiens, UniProt Q07820)
Assay: Inhibition of Mcl-1 by fluorescence polarisation, Method 1
Assay type: binding
Settings: fluorescence polarisation; Method 1, or Method 2; read-out: IC50 (M) Mcl-1 FP
Measurement type: IC50 (M)
Report only the number, with the unit M understood.

COc1nccc(COc2ccccc2CC(Oc2ncnc3sc(-c4ccc(F)c(O)c4)c(-c4ccc(OCCN5CCN(C)CC5)c(Cl)c4C)c23)C(=O)O)n1 (stereo not shown) [Example 595] :: 6.2e-09

Specify reported IC50 for the compound shown: C#Cc1sc2ncnc(OC(Cc3ccccc3OCc3ccnn3CCCC)C(=O)O)c2c1-c1ccc(OCCN2CCN(C)CC2)c(Cl)c1C (stereo not shown) [Example 611]
3.9e-09

// Input: COc1ccc(-c2sc3ncnc(OC(Cc4ccccc4OC)C(=O)O)c3c2-c2ccc(OCCN3CCN(C)CC3)c(Cl)c2C)o1 (stereo not shown) [Example 544] . Output its IC50 only.
1.4e-08

Read off the recorded IC50 for CCc1sc2ncnc(OC(Cc3ccccc3)C(=O)O)c2c1-c1cccc(Cl)c1C (stereo not shown) [Example 451]
5.8e-07
